study_system: T1, canine Y5 receptor (canine, UniProt O62729 1-446)
T1 construct: Transiently expressed in COS-7 cells; also called canine (beagle) Y5; BO11
T1 sequence: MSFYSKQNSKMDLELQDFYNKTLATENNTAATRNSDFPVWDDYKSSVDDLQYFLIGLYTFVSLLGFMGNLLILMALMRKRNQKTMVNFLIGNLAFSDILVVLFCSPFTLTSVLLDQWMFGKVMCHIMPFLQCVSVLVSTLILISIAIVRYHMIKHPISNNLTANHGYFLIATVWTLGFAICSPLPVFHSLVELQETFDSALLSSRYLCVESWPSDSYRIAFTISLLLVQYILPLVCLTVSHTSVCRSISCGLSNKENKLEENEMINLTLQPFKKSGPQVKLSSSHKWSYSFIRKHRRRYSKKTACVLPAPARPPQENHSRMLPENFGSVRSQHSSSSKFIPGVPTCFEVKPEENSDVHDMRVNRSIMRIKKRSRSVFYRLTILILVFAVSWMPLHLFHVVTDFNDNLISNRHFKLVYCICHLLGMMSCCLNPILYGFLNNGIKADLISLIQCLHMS
procedure_text: 125I-PYY displacement, COS-7 membranes
pKi: −log10 of the molar value.
recorded_metric: pKi

Dear colleague, I am looking for the recorded pKi of the following binder: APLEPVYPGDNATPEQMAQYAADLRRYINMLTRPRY (peptide, UniProt P01298 30-65, looked up, mature; also called PP, human; human pancreatic polypeptide) [human PP]
> 8.00
